# Measurement Target: S100A9 (Homo sapiens, UniProt P06702)
# Sequence (P06702 whole entry): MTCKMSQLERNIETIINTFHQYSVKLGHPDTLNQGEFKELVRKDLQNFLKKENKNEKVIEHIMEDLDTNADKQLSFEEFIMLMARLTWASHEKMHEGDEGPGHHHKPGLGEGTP
Assay Endpoint: Kd

Kd for CC[C@H](C)[C@@H](CC(=O)N[C@H]1CCCC[C@@H]1C(=O)NCC(=O)N[C@@H](CCCCNC(=O)c1ccc2c(c1)C1(OC2=O)c2ccc(O)cc2Oc2cc(O)ccc21)C(N)=O)NC(=O)[C@H]1CCCC[C@@H]1NC(=O)[C@H]1CCCC[C@@H]1NC(=O)C[C@@H](NC(=O)[C@H]1CCCC[C@@H]1N)[C@@H](C)O [fTI] is > 1 mM

====

# Measurement Target: S100B (Homo sapiens)
# Sequence (P04271 whole entry): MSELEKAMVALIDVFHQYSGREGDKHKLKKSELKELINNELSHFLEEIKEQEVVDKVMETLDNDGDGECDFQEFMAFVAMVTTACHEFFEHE
# Test Protocol: direct fluorescence polarization (FP), S100B
# Stated Conditions: 50 nM labeled foldamer, 20 mM HEPES pH 7.5, 150 mM NaCl, 1 mM CaCl2, 0.5 mM TCEP, 0.01% Tween20, quadratic fit, mean ± SEM, three technical repeats, threshold 1 mM
Assay Endpoint: Kd (µM)
# output: bare number, implied unit µM

Entry `CC(C)C[C@@H](CC(=O)N[C@H]1CCCC[C@@H]1C(=O)NCC(=O)N[C@@H](CCCCNC(=O)c1ccc2c(c1)C1(OC2=O)c2ccc(O)cc2Oc2cc(O)ccc21)C(N)=O)NC(=O)[C@H]1CCCC[C@@H]1NC(=O)[C@H]1CCCC[C@@H]1NC(=O)C[C@@H](NC(=O)[C@H]1CCCC[C@@H]1N)C(C)C` — recorded Kd = 50
